Source listed as ChEMBL document CHEMBL1799910.

- protocolDetails: Partition coefficient, log D of the compound at pH 7.4 by HPLC analysis
- experimentalContext: octanol/water

{"querySmiles": "COc1ccc(OC)c2c(=O)c3c([nH]c12)CCCC3", "logD": 1.5}
{"querySmiles": "CC1(C)CCc2c([nH]c3ccccc3c2=O)C1", "logD": 1.9}
{"querySmiles": "CCOc1ccc2[nH]c3c(c(=O)c2c1)CCCC3", "logD": 1.9}
{"querySmiles": "O=c1c2c([nH]c3ccc([N+](=O)[O-])cc13)CCCC2", "logD": 1.5}
{"querySmiles": "COc1cc2c(=O)c3c([nH]c2cc1Cl)CCCC3", "logD": 1.3}
{"querySmiles": "O=c1c2c([nH]c3ccc(-c4ccncc4)cc13)CCSC2", "logD": 0.8}
{"querySmiles": "CN1CCc2[nH]c3ccccc3c(=O)c2C1", "logD": 1}
{"querySmiles": "CC1(C)CCc2[nH]c3ccccc3c(=O)c2C1", "logD": 1.8}
{"querySmiles": "O=c1c2c([nH]c3cc(F)c(F)cc13)CCCC2", "logD": 1.9}
{"querySmiles": "Cc1ccc2c(=O)c3c([nH]c2c1)CCCC3", "logD": 2}
{"querySmiles": "O=c1c2c([nH]c3ccc(I)cc13)CCCC2", "logD": 2.3}
{"querySmiles": "Cc1cc(Cl)ccc1-c1ccc2[nH]c3c(c(=O)c2c1)CSCC3", "logD": 2.4}
{"querySmiles": "O=c1c2c([nH]c3cc([N+](=O)[O-])ccc13)CCCC2", "logD": 1.5}
{"querySmiles": "O=c1c2c([nH]c3cc(-c4c(F)cccc4F)ccc13)CCCC2", "logD": 3}
{"querySmiles": "COc1ccc2c(=O)c3c([nH]c2c1)CCC(C)(C)C3", "logD": 2.2}
{"querySmiles": "O=c1c2c([nH]c3c(F)c(F)ccc13)CCCC2", "logD": 1.9}
{"querySmiles": "CN(C)c1ccc(-c2ccc3c(=O)c4c([nH]c3c2)CCCC4)cc1", "logD": 1.3}
{"querySmiles": "Cc1ccc2[nH]c3c(c(=O)c2c1)CC(C)(C)CC3", "logD": 2.4}
{"querySmiles": "O=c1c2c([nH]c3ccc(-c4cccnc4)cc13)CCSC2", "logD": 0.8}
{"querySmiles": "O=c1c2c([nH]c3cccc(Cl)c13)CCCC2", "logD": 1.8}
{"querySmiles": "COc1cc(OC)c2c(=O)c3c([nH]c2c1)CCCC3", "logD": 1.4}
{"querySmiles": "O=c1c2c([nH]c3c(Cl)ccc(Cl)c13)CCCC2", "logD": 2.6}
{"querySmiles": "Cc1cccc2c(=O)c3c([nH]c12)CCC(C)(C)C3", "logD": 2.3}
{"querySmiles": "COc1cccc2c(=O)c3c([nH]c12)CCC(C)(C)C3", "logD": 2.4}
{"querySmiles": "Cc1cccc2[nH]c3c(c(=O)c12)CCC(C)(C)C3", "logD": 2.8}
